Attribution: PubChem BioAssay AID2060510

# Test system: 439559-082-T-J2-PDC spheroids viability;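 further: spheroids exposed to the agents for 7 days before readout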
# Protocol details: Anticancer human tumor 439559-082-T-J2-PDC patient-derived colon adenocarcinoma cell line growth inhibition [GQUAD]
# Assay conditions: curve of first compound; second compound 0.316 µM
pIC50: −log10 of the molar value.
Give measured pIC50 for each item. Keep answers brief.

Examples from the recorded data:
Cn1ncnc1[C@H]1c2n[nH]c(=O)c3cc(F)cc(c23)N[C@@H]1c1ccc(F)cc1 + Cc1[nH]c2ccc(F)cc2c1-c1nc2c3cccnc3c3ncccc3c2[nH]1 ... < 6.50
COc1cc(C2c3cc4c(cc3C(OC3OC5COC(C)OC5C(O)C3O)C3COC(=O)C23)OCO4)cc(OC)c1O (stereo not given) + Cc1cnc(CNC(=O)c2c(=O)c3ccc(N4CCCN(C)CC4)nc3n3c2sc2ccccc23)cn1 ... < 5.00
Cc1cccc(N(C)C(=O)C2C(O)CCN2c2nc(C)cc(C(F)(F)F)c2C#N)c1 (stereo not given) + CN(C)c1ccc(Nc2c3ccc(NC(=O)CCN4CCCC4)cc3nc3cc(NC(=O)CCN4CCCC4)ccc23)cc1 ... < 5.00

Your task in this section: give pIC50 for each listed record.
1. CC[C@@]1(O)C(=O)OCc2c1cc1n(c2=O)Cc2cc3c(CN(C)C)c(O)ccc3nc2-1 + CN(C)c1ccc(Nc2c3ccc(NC(=O)CCN4CCCC4)cc3nc3cc(NC(=O)CCN4CCCC4)ccc23)cc1
2. Cc1cccc(N(C)C(=O)C2C(O)CCN2c2nc(C)cc(C(F)(F)F)c2C#N)c1 (stereo not given) + Cc1[nH]c2ccc(F)cc2c1-c1nc2c3cccnc3c3ncccc3c2[nH]1

OUTPUT:
1. < 6.50
2. < 5.00
